The measurements presented in this section are drawn from patent US12227495B2.

- Test system: Lolium perenne (LOLPE)
- ASSAY DETAILS: Pre-emergence herbicide test, glasshouse, percentage damage
- Type: in vivo
- APPLIED CONDITIONS: rate 1000 g/ha, evaluated after 13 days
PROPERTY NAME: Pre-emergence Test LOLPE percentage damage (five point scale)

COMPOUND: Fc1cc(Cl)cnc1Oc1cccc(Cl)c1-n1cc(C(F)(F)F)cn1 [Compound A159]
EXPERIMENTAL RESULT: 5 (5=81-100%)
--
COMPOUND: O=[N+]([O-])c1ccc(Oc2cccc(Br)c2-c2cc(C(F)F)no2)nc1 [Compound A88]
EXPERIMENTAL RESULT: 4 (4=61-80%)
--
COMPOUND: Fc1cc(Cl)cnc1Oc1cccc(Br)c1-n1cc(C(F)(F)F)cn1 [Compound A59]
EXPERIMENTAL RESULT: 4 (4=61-80%)
--
COMPOUND: CS(=O)(=O)c1ccc(Oc2cccc(F)c2-c2cc(C(F)F)no2)nc1 [Compound A40]
EXPERIMENTAL RESULT: 1 (1=0-20%)
--
COMPOUND: N#Cc1cc(Cl)cnc1Oc1cccc(Br)c1-c1cc(C(F)F)no1 [Compound A105]
EXPERIMENTAL RESULT: 5 (5=81-100%)
--
COMPOUND: FC(F)c1cc(-c2c(Cl)cccc2Oc2cc(Cl)ccn2)on1 [Compound A92]
EXPERIMENTAL RESULT: 5 (5=81-100%)
--
COMPOUND: FC(F)c1cc(-c2c(Br)cccc2Oc2cc(Cl)ccn2)on1 [Compound A86]
EXPERIMENTAL RESULT: 4 (4=61-80%)
--
COMPOUND: N#Cc1cccnc1Oc1cccc(Br)c1-c1cc(C(F)F)no1 [Compound A107]
EXPERIMENTAL RESULT: 2 (2=21-40%)
--
COMPOUND: N#Cc1cnc(Oc2cccc(F)c2-c2cc(C(F)F)no2)c(F)c1 [Compound A23]
EXPERIMENTAL RESULT: 5 (5=81-100%)
--
COMPOUND: O=[N+]([O-])c1ccc(Oc2cccc(Cl)c2-c2cc(C(F)F)no2)nc1 [Compound A108]
EXPERIMENTAL RESULT: 5 (5=81-100%)
--
COMPOUND: Fc1cc(Cl)cnc1Oc1ccccc1-n1cc(C(F)(F)F)cn1 [Compound A16]
EXPERIMENTAL RESULT: 5 (5=81-100%)
--
COMPOUND: Fc1cc(Cl)cnc1Oc1cccc(I)c1-n1cc(C(F)(F)F)cn1 [Compound A57]
EXPERIMENTAL RESULT: 1 (1=0-20%)
--
COMPOUND: Fc1cccc(Oc2ccc(Br)cn2)c1-c1cc(C(F)F)no1 [Compound A41]
EXPERIMENTAL RESULT: 5 (5=81-100%)
--
COMPOUND: N#Cc1cccc(Oc2ncc(F)cc2F)c1-c1cc(C(F)F)no1 [Compound A160]
EXPERIMENTAL RESULT: 5 (5=81-100%)
--
COMPOUND: N#Cc1ccnc(Oc2cccc(Br)c2-c2cc(C(F)F)no2)c1 [Compound A87]
EXPERIMENTAL RESULT: 4 (4=61-80%)
